Settings: octanol/water
Residues, ends and D or L forms follow the SMILES beside them.
API: label(entry) gives true (1) if the entry's logP is strictly smaller than 2; on equality or larger values it gives false (0).

- molecule: "CC(C)[C@H](NC(=O)[C@H](C)NC(=O)[C@@H](N)Cc1c[nH]c2ccccc12)C(N)=O (H-Trp-Ala-Val-NH2)"
  group_label: "true (1)"
- molecule: "C=CCOc1ccccc1OCC(O)CNC(C)C (stereo not given)"
  group_label: "false (0)"
- molecule: "CC(=O)N[C@@H](Cc1ccc(O)cc1)C(=O)N[C@@H](CC(C)C)C(N)=O (Ac-Tyr-Leu-NH2)"
  group_label: "true (1)"

Exercise: Answer whether the molecule Clc1cccc(Cl)c1N=C1NCCN1 has logP strictly less than 2
Solution: true (1)

Exercise: Answer whether the molecule c1ccc(-c2ccccc2)cc1 has logP strictly less than 2
Solution: false (0)

Exercise: Answer whether the molecule NCCc1c[nH]c2ccccc12 has logP strictly less than 2
Solution: true (1)

Exercise: Answer whether the molecule O=[N+]([O-])c1cc(Cl)ccc1Cl has logP strictly less than 2
Solution: false (0)
